- System: HL-60
- procedure.details: Induction of necrosis in p53-deficient human HL60 cells at 50 uM after 6 hrs by FITC-conjugated annexinV/PI-based flow cytometric analysis
- Format: functional, cell-based
Active and inactive are the calls of the source. The calls are words filed in the database; no cut-off is given here.
metric: Activity

INSERT INTO results (smiles_data, tgt, result) VALUES
  ('CCCC(=O)O[C@@H]1CC[C@@]2(C)[C@@H](CC[C@]3(C)[C@@H]2CC=C2[C@@H]4[C@@H](C)[C@H](C)CC[C@]4(C)CC[C@]23C)[C@@]1(C)C(=O)O', 'HL-60', 'inactive'),
  ('CCC(=O)O[C@@H]1CC[C@@]2(C)[C@@H](CC[C@]3(C)[C@@H]2CC=C2[C@@H]4[C@@H](C)[C@H](C)CC[C@]4(C)CC[C@]23C)[C@@]1(C)C(=O)O', 'HL-60', 'inactive'),
  ('C[C@H]1[C@H](C)CC[C@]2(C)CC[C@]3(C)C(=CC[C@@H]4[C@@]5(C)CC[C@@H](O)[C@](C)(C(=O)O)[C@@H]5CC[C@]43C)[C@H]12', 'HL-60', 'inactive');
